Tested on: Mythimna separata
Procedure summary: Insecticidal activity against pre-third-instar larvae of Mythimna separata (Oriental armyworm) in wheat leaves at 1 mg/mL after 33 days by leaf-dipping method
Assay type: functional
Test settings: 792 h
Experimental readout: mortality at 1000 µg/mL (%)
Answers are plain numbers, in %.

COc1ccc(COC(=O)[C@@H]2[C@H](c3cc(OC)c(OC)c(OC)c3)c3cc4c(cc3C3=NOC[C@H]32)OCO4)cc1	44.8
CC(=O)O[C@@H]1C[C@H](O)[C@@]23CO[C@@H](O)[C@]1(C)[C@@H]2C[C@@H](O)[C@]1(C)[C@@H]3C(=O)[C@H](OC(C)=O)[C@@]2(C)[C@H](c3ccoc3)C[C@H]3O[C@]321 [TOOSENDANIN]	44.8
COc1cc([C@@H]2c3cc4c(cc3/C(=N/OS(=O)(=O)c3cccc([N+](=O)[O-])c3)[C@H]3COC(=O)[C@@H]23)OCO4)cc(OC)c1OC	13.8
COc1cc([C@@H]2c3cc4c(cc3C3=NOC[C@H]3[C@@H]2COC(=O)c2ccc([N+](=O)[O-])cc2)OCO4)cc(OC)c1OC	58.6
COc1cc([C@@H]2c3cc4c(cc3C3=NOC[C@H]3[C@@H]2C(=O)OCCc2ccccc2)OCO4)cc(OC)c1OC	41.4

Any idea what its mortality at 1000 µg/mL is? The molecule is CCc1ccc(S(=O)(=O)O/N=C2/c3cc4c(cc3[C@@H](c3cc(OC)c(OC)c(OC)c3)[C@@H]3C(=O)OC[C@H]23)OCO4)cc1 27.6

---

Assign mortality at 1000 µg/mL to each entry below.
Tested on: Mythimna separata
Procedure summary: Insecticidal activity against pre-third-instar larvae of Mythimna separata (Oriental armyworm) in wheat leaves at 1 mg/mL after 33 days by leaf-dipping method
Assay type: functional
Test settings: 792 h
Answers are plain numbers, in %.

COc1ccc(C(=O)OC[C@@H]2[C@H](c3cc(OC)c(OC)c(OC)c3)c3cc4c(cc3C3=NOC[C@H]32)OCO4)cc1	37.9
COc1cc([C@@H]2c3cc4c(cc3/C(=N/OS(C)(=O)=O)[C@H]3COC(=O)[C@@H]23)OCO4)cc(OC)c1OC	24.1
COc1cc([C@@H]2c3cc4c(cc3C3=NOC[C@H]3[C@@H]2COC=O)OCO4)cc(OC)c1OC	24.1

Batch: mortality at 1000 µg/mL for all items listed.
1. COc1cc([C@@H]2c3cc4c(cc3C3=NOC[C@H]3[C@@H]2C(=O)OCc2ccc([N+](=O)[O-])cc2)OCO4)cc(OC)c1OC
2. CCCCOC(=O)[C@@H]1[C@H](c2cc(OC)c(OC)c(OC)c2)c2cc3c(cc2C2=NOC[C@H]21)OCO3
3. COc1cc([C@@H]2c3cc4c(cc3/C(=N/OS(=O)(=O)c3ccccc3)[C@H]3COC(=O)[C@@H]23)OCO4)cc(OC)c1OC
4. COc1cc([C@@H]2c3cc4c(cc3C3=NOC[C@H]3[C@@H]2COC(=O)c2cccc(F)c2)OCO4)cc(OC)c1OC

[27.6, 58.6, 24.1, 55.2]

---

Tested on: Mythimna separata
Procedure summary: Insecticidal activity against pre-third-instar larvae of Mythimna separata (Oriental armyworm) in wheat leaves at 1 mg/mL after 33 days by leaf-dipping method
Type: functional
Test settings: 792 h
Experimental readout: mortality at 1000 µg/mL (%)
Answers are plain numbers, in %.

Batch: mortality at 1000 µg/mL for all items listed.
1. COc1cc([C@@H]2c3cc4c(cc3/C(=N/OS(=O)(=O)c3ccc(Cl)c([N+](=O)[O-])c3)[C@H]3COC(=O)[C@@H]23)OCO4)cc(OC)c1OC
2. COc1cc([C@@H]2c3cc4c(cc3/C(=N\O)[C@H]3COC(=O)[C@H]23)OCO4)cc(OC)c1OC
3. CCCCCCCC(=O)OC[C@@H]1[C@H](c2cc(OC)c(OC)c(OC)c2)c2cc3c(cc2C2=NOC[C@H]21)OCO3
4. COc1cc([C@@H]2c3cc4c(cc3C3=NOC[C@H]3[C@@H]2C(=O)OCc2cccc(F)c2)OCO4)cc(OC)c1OC
5. COc1cc([C@@H]2c3cc4c(cc3/C(=N/O)[C@H]3COC(=O)[C@@H]23)OCO4)cc(OC)c1OC

1. 13.8
2. 34.5
3. 17.2
4. 34.5
5. 17.2

Batch: mortality at 1000 µg/mL for all items listed.
1. COc1cc([C@@H]2c3cc4c(cc3/C(=N/OS(=O)(=O)c3ccc(Br)cc3)[C@H]3COC(=O)[C@@H]23)OCO4)cc(OC)c1OC
2. COc1cc([C@@H]2c3cc4c(cc3C3=NOC[C@H]3[C@@H]2C(=O)OCc2ccccc2)OCO4)cc(OC)c1OC

[27.6, 37.9]
